- Experimental Target: FLT3 R834Q (Homo sapiens, UniProt P36888, R834Q)
- Sequence (P36888 27-993 R834Q): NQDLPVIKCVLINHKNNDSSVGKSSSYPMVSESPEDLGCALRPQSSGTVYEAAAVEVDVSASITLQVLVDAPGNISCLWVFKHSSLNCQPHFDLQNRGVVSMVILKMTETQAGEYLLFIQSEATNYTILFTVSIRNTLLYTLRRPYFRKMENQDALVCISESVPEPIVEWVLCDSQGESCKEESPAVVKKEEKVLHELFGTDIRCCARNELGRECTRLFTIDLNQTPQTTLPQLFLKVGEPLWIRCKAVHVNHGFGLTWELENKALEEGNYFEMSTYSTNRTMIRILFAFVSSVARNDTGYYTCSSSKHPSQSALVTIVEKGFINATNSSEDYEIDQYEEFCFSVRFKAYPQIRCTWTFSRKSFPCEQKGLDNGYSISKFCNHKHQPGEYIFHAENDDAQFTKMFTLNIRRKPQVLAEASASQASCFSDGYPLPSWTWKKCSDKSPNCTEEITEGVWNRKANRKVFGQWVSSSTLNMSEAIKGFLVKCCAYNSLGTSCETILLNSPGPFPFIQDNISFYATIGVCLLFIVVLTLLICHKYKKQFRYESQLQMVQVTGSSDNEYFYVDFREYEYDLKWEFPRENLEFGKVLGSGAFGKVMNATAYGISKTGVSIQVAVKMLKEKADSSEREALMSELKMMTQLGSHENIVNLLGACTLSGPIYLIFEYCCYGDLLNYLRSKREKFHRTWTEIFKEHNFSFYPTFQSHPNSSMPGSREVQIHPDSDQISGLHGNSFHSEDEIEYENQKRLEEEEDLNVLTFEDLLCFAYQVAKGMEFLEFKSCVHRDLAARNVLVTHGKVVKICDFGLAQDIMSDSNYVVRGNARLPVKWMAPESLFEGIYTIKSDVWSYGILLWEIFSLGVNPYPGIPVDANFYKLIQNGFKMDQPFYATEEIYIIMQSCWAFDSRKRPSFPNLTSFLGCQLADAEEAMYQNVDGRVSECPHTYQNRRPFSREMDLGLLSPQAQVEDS
- Measurement Description: DiscoverX KINOMEscan competition binding assay, FLT3 R834Q
- Condition Description: 11-point 3-fold dilution
Exercise: state measured pKd for each of the molecules provided.
Numbers only, as −log10 of the molar value.

Sample answers from the record:
* COc1cc2ncc(-c3nc(N[C@H]4CNCC[C@@H]4F)ncc3F)n2nc1C(C)(C)O [Compound 45a] | 8.23
* CC(C)(O)c1cn2c(-c3nc(N[C@H]4CNCC[C@@H]4F)ncc3F)cnc2cn1 [Compound 100a] | 7.40
* FC(F)COc1cc2ncc(-c3ccnc(N[C@H]4CNCC[C@@H]4F)n3)n2nc1C1CC1 | 9.16
* COc1cc2ncc(-c3nc(N[C@H]4CNCC[C@@H]4F)ncc3F)n2nc1N1CCCS1(=O)=O [Compound 112a] | 9.55
* CC(C)(O)c1ccc2ncc(-c3nc(N[C@H]4CNCC[C@@H]4F)ncc3F)n2c1 [Compound 46a] | 8.36

Query molecule follows.
Give the measured pKd for COc1cc2ncc(-c3nc(N[C@H]4CNCC[C@@H]4F)ncc3F)n2nc1C1COC1 [Compound 92a] 9.11

----------
- Experimental Target: IRAK4 (Homo sapiens)
- Sequence (Q9NWZ3 whole entry): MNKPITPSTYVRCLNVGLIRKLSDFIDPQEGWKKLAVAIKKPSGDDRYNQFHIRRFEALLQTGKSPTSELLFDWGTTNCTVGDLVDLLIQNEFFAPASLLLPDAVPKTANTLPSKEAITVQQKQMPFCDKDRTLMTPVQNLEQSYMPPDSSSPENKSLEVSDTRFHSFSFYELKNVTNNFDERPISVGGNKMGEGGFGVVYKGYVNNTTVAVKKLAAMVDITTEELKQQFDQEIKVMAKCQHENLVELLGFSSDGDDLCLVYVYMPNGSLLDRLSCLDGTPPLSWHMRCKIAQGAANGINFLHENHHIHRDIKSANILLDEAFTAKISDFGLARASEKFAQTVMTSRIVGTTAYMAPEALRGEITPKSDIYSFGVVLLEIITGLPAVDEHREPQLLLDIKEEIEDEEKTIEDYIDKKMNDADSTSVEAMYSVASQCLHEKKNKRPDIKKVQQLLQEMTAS
- Measurement Description: RBC HotSpot Kinase Assay, IRAK4
- Assay type: biochemical
- Parameters: purchased Reaction Biology (RBC HotSpot)
- Condition Description: isolated kinase enzyme, 33P-ATP, P81 filter-binding
Readout Kind: pIC50
Answers are plain numbers, as −log10 of the molar value.

• CC(O)(c1ccc2ncc(-c3ccnc(N[C@@H]4CCCNC4)n3)n2c1)C(F)(F)F (single isomer, unassigned) [Compound 22a] = 8.52
• COc1cc2ncc(-c3ccnc(N[C@@H]4CCCNC4)n3)n2nc1C12CC(C1)C2 [Compound 90a] = 8.05
• CC(O)(c1ccc2ncc(-c3cncc(N[C@@H]4CCCNC4)n3)n2c1)C(F)(F)F (single isomer, unassigned) [Compound 29a] = 9.10

I would be grateful if you could provide pIC50 for each of the following entries.
1. Fc1cnc(N[C@H]2CNCC[C@@H]2F)nc1-c1cnc2cnc(C3COC3)cn12 [Compound 117a]
2. COc1cc2ncc(-c3ccnc(N[C@H]4CNCC[C@@H]4F)n3)n2nc1C1COC1 [Compound 97a]
3. COc1cc2ncc(-c3ccnc(N[C@H]4CNC[C@@H]4F)n3)n2nc1C1CC2(CCC2)C1 [Compound 75a]

1: 7.35; 2: 8.40; 3: 8.22

Please state pIC50 for every compound in the list that follows.
1. COc1cc2ncc(-c3nc(N[C@H]4CNCC[C@@H]4F)ncc3F)n2nc1N1CCOCC1 [Compound 121a]
2. COc1cnc(N[C@@H]2CCCNC2)nc1-c1cnc2cc(OC)c(C3CC3)nn12 [Compound 105a]

1: 9.15; 2: 6.59

For each of the items listed, what is its pIC50?
1. COc1cc2ncc(-c3ccnc(N[C@H]4CNC[C@@H]4F)n3)n2nc1C1CCC1 [Compound 77a]
2. COc1cc2ncc(-c3ccnc(N[C@@H]4CCCNC4)n3)n2nc1C1CCCCC1 [Compound 87a]
3. COc1cc2ncc(-c3ccnc(N[C@H]4CNCC[C@@H]4F)n3)n2nc1N1CC(F)(F)C1 [Compound 18a]
4. Fc1cnc(N[C@@H]2CCCNC2)nc1-c1cnc2cnc(C3COC3)cn12 [Compound 118a]
5. COc1cc2ncc(-c3cncc(N[C@H]4CNCC[C@@H]4F)n3)n2nc1C1CC(F)(F)C1 [Compound 73a]

1. 9.00
2. 8.52
3. 7.82
4. 6.81
5. 7.92
